The reported measurements were obtained from BindingDB's records for patent US10508109.

Recorded log10 IC50 values for a group of compounds are listed next.
- target_under_test: Histone-lysine N-methyltransferase SUV39H2 (Human)
- Sequence (Q9H5I1 whole entry): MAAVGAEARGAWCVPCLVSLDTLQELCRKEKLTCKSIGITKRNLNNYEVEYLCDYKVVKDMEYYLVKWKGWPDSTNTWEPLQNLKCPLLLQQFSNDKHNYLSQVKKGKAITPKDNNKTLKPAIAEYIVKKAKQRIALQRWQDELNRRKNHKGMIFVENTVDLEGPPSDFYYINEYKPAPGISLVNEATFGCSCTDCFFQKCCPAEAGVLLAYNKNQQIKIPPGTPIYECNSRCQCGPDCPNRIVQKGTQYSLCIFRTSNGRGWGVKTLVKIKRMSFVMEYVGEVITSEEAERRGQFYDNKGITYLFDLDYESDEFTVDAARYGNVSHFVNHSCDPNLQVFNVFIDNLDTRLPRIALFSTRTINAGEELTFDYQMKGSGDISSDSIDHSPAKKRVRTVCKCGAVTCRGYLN
measure: log10 IC50 (log10 of the value in nM)

{"columns": ["compound", "target_under_test", "log10 IC50"],
 "data": [
  ["COc1cc(CO)c(-c2cn3ccc(N4CCN(S(=O)(=O)Cc5ccccc5)CC4)cc3n2)cc1Cl [US10508109, Example 179]", "Histone-lysine N-methyltransferase SUV39H2 (Human)", 1.51],
  ["COc1cc(CO)c(-c2cn3ccc(N4CCC(NC(=O)CCNC(=O)OC(C)(C)C)C4)nc3n2)cc1Br (configuration not stated) [US10508109, Example 65]", "Histone-lysine N-methyltransferase SUV39H2 (Human)", 1.15],
  ["COc1cc(CO)c(-c2cn3ccc(N4CCC(NC(C)=O)C4)cc3n2)cc1Cl (configuration not stated) [US10508109, Example 37]", "Histone-lysine N-methyltransferase SUV39H2 (Human)", 0.64],
  ["COc1cc(CO)c(-c2cn3ccc(N4CCN(CCO)CC4)cc3n2)cc1Cl [US10508109, Example 43]", "Histone-lysine N-methyltransferase SUV39H2 (Human)", 0.93],
  ["COc1cc(CO)c(-c2cn3ccc(N(C)CCNC(=O)OC(C)(C)C)cc3n2)cc1Cl [US10508109, Example 48]", "Histone-lysine N-methyltransferase SUV39H2 (Human)", 1.09],
  ["COc1cc(CO)c(-c2cn3ccc(N4CCC(N)CC4)nc3n2)cc1Cl [US10508109, Example 42]", "Histone-lysine N-methyltransferase SUV39H2 (Human)", 1.90],
  ["COc1cc(CO)c(-c2cn3ccc(C4=CCN(CCN5CCCCC5)CC4)cc3n2)cc1Cl [US10508109, Example 147]", "Histone-lysine N-methyltransferase SUV39H2 (Human)", 1.47]
]}
